meta.source: patent US11066396B2

Below are pIC50 values recorded for HDAC5 (Homo sapiens (Human), UniProt Q9UQL6).
Numbers only, as −log10 of the molar value.

[[record]]
molecule = "O=C(C1CCOCC1)N(Cc1ccc(-c2noc(C(F)(F)F)n2)cn1)c1cccc(F)c1 [Example 60]"
reported = 6.19

[[record]]
molecule = "FC(F)(F)c1nc(-c2ccc(COc3ccc4ncnn4c3)nc2)no1 [Example 305]"
reported = 5.77

[[record]]
molecule = "Fc1cc(COc2ccc3ncnn3c2)ccc1-c1noc(C(F)(F)F)n1 [Example 240]"
reported = 7.11

[[record]]
molecule = "FC(F)(F)c1nc(-c2ccnc(OCc3ncccc3Cl)c2Cl)no1 [Example 295]"
reported = 6.30


Dear reader, for each entry below, please note its pIC50.
1. CC(C)NC(=O)OCc1ccc(-c2noc(C(F)(F)F)n2)cn1 [Example 192]
2. Fc1cnc(OCc2ccc(-c3noc(C(F)(F)F)n3)c(F)c2)nc1 [Example 230]
3. FC(F)(F)c1nc(-c2ccc(COc3ccc(Cl)nc3)nc2)no1 [Example 310]
4. Cc1noc([C@@H]2CCC(=O)N2c2ccc(-c3noc(C(F)(F)F)n3)cc2)n1 [Example 122]

Reply:
[6.19, 6.70, 6.11, 7.68]

Working through the 2 molecules below one at a time, give pIC50 for each.
1. Fc1cc(COc2nccc3nccn23)ccc1-c1noc(C(F)(F)F)n1 [Example 268]
2. CCS(=O)(=O)N(Cc1ccc(-c2noc(C(F)(F)F)n2)cc1)c1cccc(C(F)(F)F)c1 [Example 491]

Reply:
[6.92, 6.85]

---

Assign pIC50 to each entry below.
Target: HDAC8 (Homo sapiens (Human), UniProt Q9BY41)
Sequence (Q9BY41 whole entry): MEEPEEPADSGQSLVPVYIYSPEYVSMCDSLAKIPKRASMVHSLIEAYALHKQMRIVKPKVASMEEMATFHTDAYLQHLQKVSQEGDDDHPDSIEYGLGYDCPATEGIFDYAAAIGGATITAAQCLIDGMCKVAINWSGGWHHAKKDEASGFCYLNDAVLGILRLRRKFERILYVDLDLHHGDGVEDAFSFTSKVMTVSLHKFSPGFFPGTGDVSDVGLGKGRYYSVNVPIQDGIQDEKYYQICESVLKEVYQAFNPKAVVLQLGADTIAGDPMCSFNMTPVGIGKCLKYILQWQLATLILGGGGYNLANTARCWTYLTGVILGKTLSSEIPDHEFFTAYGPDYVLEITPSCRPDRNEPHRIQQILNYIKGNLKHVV
Numbers only, as −log10 of the molar value.

Worked examples, 4 compounds total:
[[record]]
compound = "NC(=O)c1ncccc1NCc1ccc(-c2noc(C(F)(F)F)n2)cn1"
parameter = "pIC50"
reported = 5.66

[[record]]
compound = "CNC(=O)c1ccccc1NCc1ccc(-c2noc(C(F)(F)F)n2)cn1"
parameter = "pIC50"
reported = 5.60

[[record]]
compound = "O=C1CCC(c2ccccc2)N1c1ncc(-c2noc(C(F)(F)F)n2)cc1F (centres unmarked)"
parameter = "pIC50"
reported = 4.89

[[record]]
compound = "Cc1cc(C)nc(COc2nccc(-c3noc(C(F)(F)F)n3)c2Cl)n1"
parameter = "pIC50"
reported = 5.41


Please state, for each entry, its recorded pIC50.
1. Fc1cc(CNc2ccc3ccncc3c2)ccc1-c1noc(C(F)(F)F)n1
2. FC(F)(F)c1nc(-c2ccc(COc3ccc4ccccc4n3)nc2)no1
3. Cc1nccn1C(C)C(=O)N(Cc1ccc(-c2noc(C(F)(F)F)n2)cn1)c1cccc(F)c1 (racemic)
4. O=C(NC(Cc1ccc(-c2noc(C(F)(F)F)n2)cn1)c1cccc(C(F)(F)F)c1)c1cccnc1 (racemic)

Reply:
1: 4.35; 2: 4.68; 3: 5.77; 4: 5.28

---

The following molecules each carry a recorded pIC50 for HDAC1 (Homo sapiens (Human)).
Give bare numbers, as −log10 of the molar value.

Completed entries (count: 3):
[[record]]
molecule = "O=C1NCCc2ccccc2C1NCc1ccc(-c2noc(C(F)(F)F)n2)cn1 (racemic)"
reported = 5.89

[[record]]
molecule = "O=C1NCCCC1NCc1ccc(-c2noc(C(F)(F)F)n2)cn1 (racemic)"
reported = 5.08

[[record]]
molecule = "O=C1CCC(c2ccc(Cl)cc2)N1c1ccc(-c2noc(C(F)(F)F)n2)cc1F (centres unmarked)"
reported = 6.14


Give one value of pIC50 per listed molecule.
1. Cn1ccc(COc2nccc(-c3noc(C(F)(F)F)n3)c2Cl)n1
2. Fc1cc(COc2ccccc2)ccc1-c1noc(C(F)(F)F)n1
3. CC(C)(C)OC(=O)N1CC(=O)N(c2ccc(-c3noc(C(F)(F)F)n3)cc2)[C@H](c2ccccc2)C1 (racemic)
4. O=C(C1CCS(=O)(=O)CC1)N(Cc1ccc(-c2noc(C(F)(F)F)n2)cn1)c1ccccc1C(F)(F)F
5. Fc1cnc(OCc2ccc(-c3noc(C(F)(F)F)n3)c(F)c2)nc1

Reply:
[5.08, 4.35, 5.77, 5.40, 5.07]
